Molecular target: DNA-directed RNA polymerase subunit beta (Escherichia coli (strain K12)) (UniProt P0A8V2)
Sequence (P0A8V2 whole entry, looked up): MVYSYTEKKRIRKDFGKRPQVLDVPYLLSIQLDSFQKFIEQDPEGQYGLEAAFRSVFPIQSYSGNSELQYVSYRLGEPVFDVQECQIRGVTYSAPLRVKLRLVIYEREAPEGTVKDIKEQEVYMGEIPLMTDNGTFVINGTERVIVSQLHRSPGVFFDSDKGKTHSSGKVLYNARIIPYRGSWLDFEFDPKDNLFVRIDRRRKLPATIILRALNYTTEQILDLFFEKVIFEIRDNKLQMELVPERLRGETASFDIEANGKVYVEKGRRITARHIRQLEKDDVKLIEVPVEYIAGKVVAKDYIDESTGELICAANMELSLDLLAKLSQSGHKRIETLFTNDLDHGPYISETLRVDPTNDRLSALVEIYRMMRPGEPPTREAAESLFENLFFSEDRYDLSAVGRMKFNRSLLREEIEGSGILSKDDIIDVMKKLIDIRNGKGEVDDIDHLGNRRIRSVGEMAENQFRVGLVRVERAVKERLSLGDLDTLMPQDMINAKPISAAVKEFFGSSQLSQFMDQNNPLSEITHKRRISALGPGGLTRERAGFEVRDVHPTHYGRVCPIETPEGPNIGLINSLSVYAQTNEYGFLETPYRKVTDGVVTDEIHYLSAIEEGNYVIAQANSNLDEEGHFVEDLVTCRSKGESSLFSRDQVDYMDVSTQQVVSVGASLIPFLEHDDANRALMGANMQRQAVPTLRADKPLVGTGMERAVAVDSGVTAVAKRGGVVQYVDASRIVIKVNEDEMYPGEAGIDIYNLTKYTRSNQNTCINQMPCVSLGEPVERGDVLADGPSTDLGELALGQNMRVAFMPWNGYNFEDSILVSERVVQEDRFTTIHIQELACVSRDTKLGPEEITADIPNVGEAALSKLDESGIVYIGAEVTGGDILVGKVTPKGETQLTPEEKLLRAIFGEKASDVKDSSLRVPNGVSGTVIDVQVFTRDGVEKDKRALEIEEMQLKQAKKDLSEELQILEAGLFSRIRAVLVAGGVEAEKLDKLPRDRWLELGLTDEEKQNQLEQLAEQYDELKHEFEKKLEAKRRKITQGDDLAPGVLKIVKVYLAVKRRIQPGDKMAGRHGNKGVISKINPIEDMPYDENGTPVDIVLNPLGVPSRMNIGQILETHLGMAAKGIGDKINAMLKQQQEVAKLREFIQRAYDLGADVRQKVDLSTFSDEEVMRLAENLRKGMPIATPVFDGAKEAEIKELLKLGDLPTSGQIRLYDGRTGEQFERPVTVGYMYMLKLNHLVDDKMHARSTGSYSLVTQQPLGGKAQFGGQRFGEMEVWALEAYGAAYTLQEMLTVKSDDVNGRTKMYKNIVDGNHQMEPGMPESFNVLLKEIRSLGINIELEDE
Test: bacterial RNA polymerase transcription inhibition – biochemical (AID 559);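 note: 0% = enzyme without compound and 100% = no enzyme blank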
Settings: E. coli RNA polymerase, fluorescence transcription assay; hits give high values;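 tested at 10 µM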
The campaign covered roughly 62,000 compounds. About 100 (0.2%) were called active. This is one part of a sample in which actives are shown more often than they occur.
endpoint_name: inhibition (%)
The response must be a number in % with no trailing unit.

Past entries and their recorded results:
{"columns": ["structure_as_smiles", "endpoint_name", "experimental_value"],
 "data": [
  ["Cn1c(=O)n(C)c2cc(S(=O)(=O)N3CCCc4ccccc43)ccc21", "inhibition", 0.45],
  ["COc1ccc(Cl)cc1S(=O)(=O)Nc1cccc(C(=O)O)c1", "inhibition", 4.26],
  ["Cc1nn(C)c(C)c1S(=O)(=O)N1CCc2ccccc21", "inhibition", 27.2]
]}

Task: // lookup inhibition for `COc1c(C)cccc1C(=O)Nc1cc(Cl)ccc1N1CCOCC1`
Output: 5.92

Task: // lookup inhibition for `C[C@H](NC(=O)OC(C)(C)C)c1nnc(SCC(N)=O)o1`
Output: -0.35

Task: // lookup inhibition for `COc1ccc(-n2nnc3c(=O)n(CC(=O)OCc4ccccc4)cnc32)cc1`
Output: 1.78

###

Target: DNA-directed RNA polymerase subunit beta (Escherichia coli (strain K12)) (UniProt P0A8V2)
Test: bacterial RNA polymerase transcription inhibition – biochemical (AID 559);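 note: 0% = enzyme without compound and 100% = no enzyme blank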
Conditions: E. coli RNA polymerase, fluorescence transcription assay; hits give high values;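 tested at 10 µM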
Hit rate of the full screen: of about 62,000 compounds, about 100 (0.2%) were called active. Shown is part of a subset that was picked to be rich in actives.
endpoint_name: inhibition (%)
The response must be a number in % with no trailing unit.

Past entries and their recorded results:
{"columns": ["molecule", "inhibition [%]"],
 "data": [
  ["CC1(c2ccccc2Cl)NC(=O)N(CC(=O)NC(=O)NCc2ccco2)C1=O (stereo not drawn)", 3.56],
  ["O=S(=O)(c1ccc(OCC(O)CN2CCN(c3ccccc3Cl)CC2)cc1)N1CCOCC1 (stereo not drawn)", 1.46],
  ["C=CCNC(=O)C1CC=CCC1C(=O)O (stereo not drawn)", -0.09],
  ["CC1=C(C)CC2C(=O)N(c3cccc4ccccc34)C(=O)C2C1 (stereo not drawn)", 5.39],
  ["CC(C)Cc1cc(C(=O)NCCc2ccccc2)no1", -0.72]
]}

Task: // lookup inhibition for `O=C(NCCc1ccccn1)c1ccc(COc2ccccc2)o1`
Output: 5.1

Task: // lookup inhibition for `Fc1ccccc1OCCCCn1cncn1`
Output: 2.62

Task: // lookup inhibition for `Cc1ccc(O)c(NC(=O)COc2cc(C)ccc2C)c1`
Output: 4.28

Task: // lookup inhibition for `O=C(Cn1nc(C(F)(F)F)c2c1CCC2)NCc1ccc(F)cc1`
Output: -0.7

Task: // lookup inhibition for `O=C(Nc1nc2cc3c(cc2s1)OCCO3)c1cccc(S(=O)(=O)N2CCOCC2)c1`
Output: -1.12

Task: // lookup inhibition for Cc1ccc(CC2CC(=O)N(c3ccc4c(c3)OCCO4)C2=O)cc1 (stereo not drawn)
Output: 7.6

Task: // lookup inhibition for `Cc1ccccc1-n1c(SCC(=O)NCc2cccs2)nnc1-c1ccncc1`
Output: -3.22

Task: // lookup inhibition for `O=C1CSC(=O)N1CCOCCN1C(=O)CSC1=O`
Output: 8.19

###

Target: DNA-directed RNA polymerase subunit beta (Escherichia coli (strain K12)) (UniProt P0A8V2)
Assay: bacterial RNA polymerase transcription inhibition – biochemical (AID 559);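 note: 0% = enzyme without compound and 100% = no enzyme blank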
Conditions: E. coli RNA polymerase, fluorescence transcription assay; hits give high values;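 tested at 10 µM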
Screen size: about 62,000 compounds; about 100 (0.2%) were called active. This is one part of a sample in which actives are shown more often than they occur.
endpoint_name: inhibition (%)
The response must be a number in % with no trailing unit.

Past entries and their recorded results:
{"columns": ["compound", "inhibition / %"],
 "data": [
  ["O=C(Nc1ccccc1F)c1cc(S(=O)(=O)N2CCCCC2)cs1", -4.61],
  ["COC(=O)CCSc1nccn1Cc1ccccc1", 2.17]
]}

Task: // lookup inhibition for O=C(NCc1ccccc1)C1C(=O)N(Cc2ccccc2)C(=O)C1C1(O)CCCC1 (stereo not given)
Output: -8.01

Task: // lookup inhibition for `O=C(CSc1n[nH]c(-c2cccnc2)n1)Nc1ccnc2ccccc12`
Output: 11.1

Task: // lookup inhibition for CC(C(=O)N1CCOCC1)N1c2cccc3cccc(c23)S1(=O)=O (stereo not given)
Output: 8.72

Task: // lookup inhibition for `CC(C)[C@H](NC(=O)Nc1ccc(S(N)(=O)=O)cc1)C(=O)O`
Output: 3.2

Task: // lookup inhibition for `CCCS(=O)(=O)Nc1c(C(=O)O)[nH]c2ccccc12`
Output: 8.57

Task: // lookup inhibition for O=C(O)C1OC(C(=O)O)C2C1C(F)(F)C2(F)F (stereo not given)
Output: 3.61

Task: // lookup inhibition for `Cc1ccc(C)c(NS(=O)(=O)c2cc(Br)cnc2N)c1`
Output: -0.25

Task: // lookup inhibition for `Cn1c(SCC(=O)Nc2cccc(O)c2)nnc1-c1ccc(S(=O)(=O)N2CCOCC2)cc1`
Output: 0.17

Task: // lookup inhibition for CCc1cccc2c3c([nH]c12)C(CC)(CC(=O)O)OCC3 (stereo not given)
Output: 8.22

Task: // lookup inhibition for `CC(C)OC(=O)CN1C(=O)c2ccccc2C1=O`
Output: 8.17

Task: // lookup inhibition for CC(c1ccccc1)n1c(NCCCn2ccnc2)nc2c1c(=O)[nH]c(=O)n2C (stereo not given)
Output: 6.37

###

# Lookup of reported inhibition keyed by entry
Biological target: DNA-directed RNA polymerase subunit beta (Escherichia coli (strain K12)) (UniProt P0A8V2)
Experiment: bacterial RNA polymerase transcription inhibition – biochemical (AID 559);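 note: 0% = enzyme without compound and 100% = no enzyme blank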
Conditions: E. coli RNA polymerase, fluorescence transcription assay; hits give high values;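 tested at 10 µM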
Screen size: about 62,000 compounds; about 100 (0.2%) were called active. The sample as a whole holds a higher share of actives than the screen did.
The response must be a number in % with no trailing unit.

{"columns": ["molecule", "endpoint_name", "unit_abbrev", "experimental_value"],
 "data": [
  ["COc1ccccc1C(=O)N1CCNC(=O)C1CC(=O)Nc1ccc(Cl)cc1 (stereo unspecified)", "inhibition", "%", 7.25],
  ["Cc1ccc(NC(=O)c2cc(-c3ccc(C)o3)nc3ccccc23)nc1", "inhibition", "%", 2.57],
  ["O=C(NCc1cccs1)C1CCN(S(=O)(=O)c2ccc3c(c2)OCCO3)CC1", "inhibition", "%", 7.85]
]}

Task: // lookup inhibition for C=CCOc1ccc(C2/C(=C(\O)c3c(C)[nH]c(C(=O)OC)c3C)C(=O)C(=O)N2CCN(C)C)cc1 (stereo unspecified)
Output: -5.38

Task: // lookup inhibition for `Cc1cc(C)c(C(=O)CN2C(=O)CCC2=O)cc1C`
Output: 1.27

Task: // lookup inhibition for `COC(=O)c1ccc(NC(=O)CSc2nnc(CNc3ccc(OC)cc3)n2C)cc1`
Output: 1.56

Task: // lookup inhibition for COc1ccc(-c2nc(CS(=O)CC(=O)NCc3cccnc3)c(C)o2)cc1OC (stereo unspecified)
Output: -0.41

Task: // lookup inhibition for `CCOC(=O)c1ccc(-c2ccc(C(=O)Nc3cccnc3)o2)cc1`
Output: 14.4

###

Molecular target: DNA-directed RNA polymerase subunit beta (Escherichia coli (strain K12)) (UniProt P0A8V2)
Assay: bacterial RNA polymerase transcription inhibition – biochemical (AID 559);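 note: 0% = enzyme without compound and 100% = no enzyme blank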
Details: E. coli RNA polymerase, fluorescence transcription assay; hits give high values;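 tested at 10 µM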
About 100 (0.2%) of roughly 62,000 compounds were called active. This excerpt belongs to a sample that is enriched for actives.
# Lookup of reported inhibition keyed by entry
The response must be a number in % with no trailing unit.

Past entries and their recorded results:
{"columns": ["molecule", "inhibition (%)"],
 "data": [
  ["CC(C)C(c1nnnn1Cc1ccccc1)N1CCC(C(N)=O)CC1 (stereo unspecified)", 9.07],
  ["CCOc1ccc(NC(=O)CC2NCCNC2=O)cc1 (stereo unspecified)", 10.3],
  ["COc1ccccc1C1/C(=C(/O)c2ccc(C)cc2)C(=O)C(=O)N1Cc1ccco1 (stereo unspecified)", 10.3]
]}

Task: // lookup inhibition for `Cc1ccc2c(c1)sc1ncc(NC(=O)c3ccccc3)c(=O)n12`
Output: -11.4

Task: // lookup inhibition for `CCCCOc1ccc(NC(=O)CSCC(=O)OCC)cc1`
Output: 20.6

Task: // lookup inhibition for `CCOc1ccc(NC(=O)CCC(=O)n2nc(C)cc2C)cc1`
Output: 7.47

###

Target: DNA-directed RNA polymerase subunit beta (Escherichia coli (strain K12)) (UniProt P0A8V2)
Test: bacterial RNA polymerase transcription inhibition – biochemical (AID 559);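 note: 0% = enzyme without compound and 100% = no enzyme blank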
Conditions: E. coli RNA polymerase, fluorescence transcription assay; hits give high values;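 tested at 10 µM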
The whole screen tested about 62,000 compounds, of which about 100 (0.2%) were called active. Many of the other results were omitted from the sample, so actives are more common in it than they were.
# Lookup of reported inhibition keyed by entry
The response must be a number in % with no trailing unit.

Past entries and their recorded results:
{"columns": ["compound", "experimental_value"],
 "data": [
  ["Cc1ccc(NC(=O)CN(C)S(=O)(=O)c2cnc[nH]2)cc1C", 6.13],
  ["Cn1c(=O)cc(OCCCC(=O)N2CCN(Cc3ccc4c(c3)OCO4)CC2)c2ccccc21", 14.1],
  ["CCc1c(C)sc(NC(=O)c2ccc(Br)o2)c1C(=O)OC", 3.85]
]}

Task: // lookup inhibition for CCC(C(=O)N1CCOCC1)n1c(C(=O)OC)cc2occc21 (centres undefined)
Output: -1.1

Task: // lookup inhibition for `Cc1cc(Nc2ccc(Br)cc2F)n2ncnc2n1`
Output: -2.75

Task: // lookup inhibition for CCC1CCCCN1CCNC(=O)c1[nH]c(C)c(C(C)=O)c1C (centres undefined)
Output: 3.39

Every entry's value here was drawn from PubChem BioAssay AID559.
